# key: entry, value: MIC
# Test system: Bacillus licheniformis
# assay.procedure: Antibacterial activity against Bacillus licheniformis assessed as growth inhibition after 18 to 24 hr by resazurin assay
# Type: functional

# entry.smiles, MIC [µg/mL]
data = [
    ("Nc1nc(-c2ccc(NC(=O)c3ccccc3)cc2)c(/N=N/c2ccccc2)s1", 0.25),
    ("Nc1nc(-c2ccc(NC(=O)c3ccccc3)cc2)c(/N=N/c2ccc(Cl)cc2)s1", 0.125),
    ("Nc1nc(-c2ccc(NC(=O)c3ccccc3)cc2)c(/N=N/c2ccc([N+](=O)[O-])cc2)s1", 0.0312),
]

====

# System: Bacillus licheniformis
# assay.procedure: Antibacterial activity against Bacillus licheniformis assessed as growth inhibition after 18 to 24 hr by resazurin assay
# Assay type: functional
value.type: MIC (µg/mL)

# entry.smiles, experimental.system, value.type, result
measured = [
    ("Cc1ccc(/N=N/c2sc(N)nc2-c2ccc(NC(=O)c3ccccc3)cc2)cc1", "Bacillus licheniformis", "MIC", 0.125),
    ("Nc1nc(-c2ccc(NC(=O)c3ccccc3)cc2)cs1", "Bacillus licheniformis", "MIC", 0.125),
    ("Nc1nc(-c2ccc(NC(=O)c3ccccc3)cc2)c(/N=N/c2cccc([N+](=O)[O-])c2)s1", "Bacillus licheniformis", "MIC", 0.0625),
    ("O=C(N[C@H](CO)[C@H](O)c1ccc([N+](=O)[O-])cc1)C(Cl)Cl", "Bacillus licheniformis", "MIC", 0.0039),
    ("Nc1nc(-c2ccc(NC(=O)c3ccccc3)cc2)c(/N=N/c2ccccc2[N+](=O)[O-])s1", "Bacillus licheniformis", "MIC", 0.125),
    ("COc1ccc(/N=N/c2sc(N)nc2-c2ccc(NC(=O)c3ccccc3)cc2)cc1", "Bacillus licheniformis", "MIC", 0.125),
    ("Nc1nc(-c2ccc(NC(=O)c3ccccc3)cc2)c(/N=N/c2cccc(Cl)c2)s1", "Bacillus licheniformis", "MIC", 0.125),
    ("Nc1nc(-c2ccc(NC(=O)c3ccccc3)cc2)c(/N=N/c2ccccc2Cl)s1", "Bacillus licheniformis", "MIC", 0.125),
    ("Nc1nc(-c2ccc(NC(=O)c3ccccc3)cc2)c(/N=N/c2ccc(Br)cc2)s1", "Bacillus licheniformis", "MIC", 0.25),
]
